Subject Of Test: CYP2D6*2 (Homo sapiens, UniProt P10635, R296C/S486T)
Details: human, recombinant CYP2D6*2 Bactosomes, pH 7.4
Structures can show the parent of a compound that is named as a salt.
Measured Metric: Km at 30 min (µM)
Numbers only here, please. The scale is µM.

Input: Item COc1cccc(C2(O)CCCCC2CN(C)C)c1 (stereo not shown) [Tramadol, tramadol hydrochloride] with CYP2D6*2 (Homo sapiens, UniProt P10635, R296C/S486T) - Km at 30 min?
Output: 59.4

* * *

Subject Of Test: CYP2D6*1 (Homo sapiens)
Details: human, recombinant CYP2D6*1 Bactosomes, pH 7.4
Counter-ions that a name gives are not always drawn.
Measured Metric: Km at 30 min (µM)
Numbers only here, please. The scale is µM.

Input: Tell me the measured Km at 30 min of COc1cccc(C2(O)CCCCC2CN(C)C)c1 (stereo not shown) [Tramadol, tramadol hydrochloride] , please.
Output: 59.6
